// reported pIC50 for each item listed
Tested on: MCF7 cell line
Assay: MTS cytotoxicity assay, MCF7
Type: cell-based
Conditions: Homo sapiens, 72 h incubation
Scale: negative log10 of molar concentration, which is what pIC50 denotes.

Smiles record	Experimental target	pIC50
Oc1ccc(-c2ccc(F)cc2F)cc1-c1n[nH]c(=S)n1-c1cccc(Cl)c1	MCF7 cell line	4.89
CCCn1c(-c2cc(-c3ccc(F)cc3F)ccc2O)n[nH]c1=S	MCF7 cell line	4.65
Oc1ccc(-c2ccc(F)cc2F)cc1-c1n[nH]c(=S)n1-c1cccc(F)c1	MCF7 cell line	4.82

# ---- query molecule ----
Task: Query (molecule): `COc1ccccc1NC(=S)NNC(=O)c1cc(-c2ccc(F)cc2F)ccc1O` ; field requested: pIC50
Result: 5.41
